Target: truncated His-MBP-Tev-KLHDC2 (residues 1-363) (Homo sapiens)
Construct: truncated His -MBP-Tev-KLHDC2 (residues 1-363) purified from E. coli; made in house; host or cells: E. coli
Sequence (Q9Y2U9 1-363): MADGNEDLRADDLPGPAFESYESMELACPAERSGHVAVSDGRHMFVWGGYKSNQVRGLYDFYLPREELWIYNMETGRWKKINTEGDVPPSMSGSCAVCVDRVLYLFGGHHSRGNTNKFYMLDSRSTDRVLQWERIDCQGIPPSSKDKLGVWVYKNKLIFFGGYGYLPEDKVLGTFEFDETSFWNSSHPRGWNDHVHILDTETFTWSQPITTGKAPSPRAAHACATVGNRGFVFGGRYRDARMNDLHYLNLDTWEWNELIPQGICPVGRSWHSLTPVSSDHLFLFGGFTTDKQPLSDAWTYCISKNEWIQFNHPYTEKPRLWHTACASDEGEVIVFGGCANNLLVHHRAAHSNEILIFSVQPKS
Assay: KLHDC2 FP competition binding assay
Conditions: 15 nM KLHDC2 (residues 1-363), 10 nM fluorescein-labeled diglycine peptide probe, read-out: KLHDC2 binding Human FP: average external IC50
pIC50: −log10 of the molar value.
measurement-type: pIC50

Which pIC50 is listed for COc1cc(-c2ccc(F)c(CCCCCCCCCNC(=O)C[C@@H]3N=C(c4ccc(Cl)cc4)c4c(sc(C)c4C)-n4c(C)nnc43)c2)ccc1C(=O)Nc1ccc(=O)n(CC(=O)O)c1 ?
6.30 to 7.30

Cc1sc2c(c1C)C(c1ccc(Cl)cc1)=N[C@@H](CC(=O)NCCCCCCn1ccc3c(C(=O)Nc4ccc(=O)n(CC(=O)O)c4)cccc31)c1nnc(C)n1-2 ?
> 7.30

Moving on to CS(=O)(=O)c1ccc(-c2cccc(C(=O)Nc3ccc(=O)n(CC(=O)O)c3)c2)cc1
< 5.30

// query: O=C(O)Cn1cc(NC(=O)[C@H]2Cc3ccccc3N(c3cccnc3)C2)ccc1=O
< 5.30

Then this compound: O=C(O)Cn1cc(C(F)(F)F)ccc1=O
< 5.30

Again, but for O=C(O)Cn1cc(NC(=O)c2cccc(-c3cccc(C(F)(F)F)c3)c2)ccc1=O
< 5.30

Quick one: O=C(O)C1CC(=O)N(C2CCSc3ccccc32)C1 (centres unmarked)
< 5.30

Likewise for COc1cc(-c2ccccc2)ccc1C(=O)Nc1ccc(=O)n(CC(=O)O)c1 ?
5.30 to 6.30

Another compound to look at: Cc1ccc2cc(C(=O)Nc3ccc(=O)n(CC(=O)O)c3)cnc2c1
< 5.30

Proceed to O=C(O)Cn1cc(CC(=O)Nc2ccccc2)ccc1=O
< 5.30

And for O=C(O)Cn1cc(NC(=O)c2ccc3nc(Cl)ccc3c2)ccc1=O ?
< 5.30

How about COc1ncc(-c2ccc(=O)n(CC(=O)O)c2)cn1 ?
< 5.30

What do we get for O=C(O)Cn1cc(NC(=O)COc2cccc(C(F)(F)F)c2)ccc1=O ?
< 5.30

Now give it for NCCCCCCc1cncc(-c2cccc(C(=O)Nc3ccc(=O)n(CC(=O)O)c3)c2)c1 too.
5.30 to 6.30

Try this compound too: Cc1ccccc1-c1cccc(C(=O)Nc2ccc(=O)n(CC(=O)O)c2)c1
< 5.30

Do the same for COc1cc(F)cc(-c2ccc(=O)n(CC(=O)O)c2)c1 please
< 5.30

Thanks! And O=C(O)Cn1cc(NC(=O)c2cccc(-c3ccccc3F)c2)ccc1=O ?
< 5.30

Can you check COc1ccc(/C=C/CC(=O)Nc2ccc(=O)n(CC(=O)O)c2)cc1 next?
< 5.30

Same question, O=C(O)Cn1cc(NC(=O)[C@@H]2C[C@H](C(F)(F)F)CN(c3cccnc3)C2)ccc1=O this time
5.30 to 6.30

Another: O=C(O)Cn1cc(-c2ccc(N3CCOCC3)cc2)ccc1=O
< 5.30

Same for O=C(O)Cn1cc(NC(=O)[C@H]2CCCN(c3cccnc3)C2)c(C(F)(F)F)cc1=O
< 5.30

How about CN(C(=O)c1ccccc1)c1ccc(=O)n(CC(=O)O)c1 ?
< 5.30

Now consider O=C(O)Cn1cc(NC(=O)c2ccc(-c3ccccc3)c(Cl)c2)ccc1=O and answer again.
< 5.30

Entry to check: O=C(O)Cn1cc(NC(=O)c2cccc(-c3cccnc3)c2)ccc1=O
5.30 to 6.30

Next entry: O=C(O)Cn1cc(NC(=O)c2ccc(-c3cccnc3)cc2)ccc1=O
< 5.30

What do you get for COc1cc(-c2cccs2)ccc1C(=O)Nc1ccc(=O)n(CC(=O)O)c1 ?
5.30 to 6.30

Here is the next compound: Cc1cc(=O)n(CC(=O)O)cc1NC(=O)[C@H]1CCCN(c2cccnc2)C1
5.30 to 6.30

Param item: O=C(O)Cc1cnn2ccccc12
< 5.30

For O=C(O)Cn1cc(-c2cccc(C(F)(F)F)c2)ccc1=O then?
< 5.30

Item: O=C(O)C1CC(=O)N(Cc2ccc(Cl)cc2)C1 (centres unmarked)
< 5.30

Then this compound: CS(=O)(=O)NC(=O)Cn1cc(NC(=O)c2cccc(-c3cccnc3)c2)ccc1=O
< 5.30

Record: Cc1ccc(C(=O)Nc2ccc(=O)n(CC(=O)O)c2)nc1-c1ccccc1
< 5.30

Moving on to the next compound: O=C(O)Cn1cc(NC(=O)c2cccc(-c3ccccc3)n2)ccc1=O
< 5.30

And the next one, COc1ccc(C#N)cc1-c1ccc(=O)n(CC(=O)O)c1 ?
< 5.30

One more compound: O=C(O)Cn1cc(NC(=O)COc2ccc(Oc3ccccc3)cc2)ccc1=O
< 5.30

Same again, this time with Nc1ccc(F)c2c(O)n[nH]c12
< 5.30

Field entry: CN(C)C(=O)c1ccc(-c2ccc(=O)n(CC(=O)O)c2)cc1F
< 5.30

Now give it for CCc1ccc(C)c(-c2ccc(=O)n(CC(=O)O)c2)c1 too.
< 5.30
